- subject-of-test: tau (Homo sapiens)
- method: MCE Phenols Library screening, tau biosensor cell seeding assay (AvZ)
- Type: cell-based
- condition-info: Z score, replicate 2
Z Repl 2 values, listed per item

molecule	subject-of-test	Z Repl 2
Oc1cc(O)c2c(c1)O[C@H](c1ccc(O)c(O)c1)[C@H](O)[C@H]2c1c(O)cc(O)c2c1O[C@H](c1ccc(O)c(O)c1)[C@H](O)[C@H]2c1c(O)cc(O)c2c1O[C@H](c1ccc(O)c(O)c1)[C@H](O)C2 [Procyanidin C1]	tau (Homo sapiens)	1.6
O=C(O)c1cccc(O)c1 [3-Hydroxybenzoic acid]	tau (Homo sapiens)	-0.88
Cc1cc(=O)oc2cc(O)ccc12 [4-Methylumbelliferone]	tau (Homo sapiens)	-0.379
O=c1ccc2cc(O)ccc2o1 [6-Hydroxycoumarin]	tau (Homo sapiens)	0.434
O=c1cc(-c2ccc(O)cc2)oc2cc(O[C@@H]3O[C@H](CO)[C@@H](O)[C@H](O)[C@H]3O)cc(O)c12 [Apigenin 7-glucoside]	tau (Homo sapiens)	-0.371
O=C1C[C@@H](c2cc(O)c(O)c(O[C@@H]3O[C@H](CO)[C@@H](O)[C@H](O)[C@H]3O)c2)Oc2cc(O)cc(O)c21 [Plantagoside]	tau (Homo sapiens)	-0.026

Consider the record given below.
Query: Write Z Repl 2 of Cc1cccc(O)c1O [3-Methylcatechol] ; system used: tau (Homo sapiens)
Result: -0.383

----------
- subject-of-test: tau (Homo sapiens, UniProt P10636)
- Sequence (P10636 623-695 limits assumed): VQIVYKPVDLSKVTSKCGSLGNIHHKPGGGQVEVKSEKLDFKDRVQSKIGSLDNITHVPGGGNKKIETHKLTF
- method: MCE Phenols Library screening, tau biosensor cell seeding assay (AvZ)
- Type: cell-based
- condition-info: Z score, replicate 1
# Z repl 1 per entry
Reply: number alone, nothing else.

Below are worked cases with known answers.
compound	Z repl 1
C[C@@H]1O[C@@H](OC[C@H]2O[C@@H](OCCc3ccc(O)c(O)c3)[C@H](O)[C@@H](O)[C@@H]2OC(=O)/C=C/c2ccc(O)c(O)c2)[C@H](O)[C@H](O)[C@H]1O [Forsythiaside A]	0.23
O=C(O)c1ccccc1O [Salicylic acid, reference compound]	-1.015
O=C1C=CC(=O)c2c(O)ccc(O)c21	-0.196

Query: Hello, please tell me recorded Z repl 1 for this one: COc1c(/C=C/C(=O)c2ccc(O)c(CC=C(C)C)c2)ccc(O)c1O
Result: 0.138

Query: Quick one: give measured Z repl 1 for CC(C)=CCc1cc2c(cc1O)O[C@H](c1ccc(O)cc1)CC2=O
Result: -0.343

----------
- subject-of-test: tau (Homo sapiens, UniProt P10636)
- method: MCE Phenols Library screening, tau biosensor cell seeding assay (AvZ)
- Assay type: cell-based
- condition-info: average of raw data 1 and 2
readout-kind: av puncta

# count of solved cases: 5
compound	readout-kind	experimental-result
O=C(O)C(O)Cc1ccc(O)cc1 (centres unmarked) [Hydroxyphenyllactic acid]	av puncta	19806.4
C=C(C)[C@H](CC=C(C)C)Cc1c(O)cc(O)c2c1O[C@H](c1ccc(O)cc1OC)CC2=O [Leachianone A]	av puncta	18045.6
Cc1cc(=O)oc2cc(O)cc(O)c12 [5,7-Dihydroxy-4-methylcoumarin]	av puncta	21685.4
COc1cc(/C=C/c2cc(O)cc(O)c2)ccc1O [Isorhapontigenin]	av puncta	30407
OCCc1ccccc1 [2-Phenylethanol]	av puncta	27499.2

Query: Give me measured av puncta, please, for this compound: C[C@@H]1O[C@@H](O[C@H]2C(=O)c3c(O)cc(O)cc3O[C@H]2c2ccc(O)c(O)c2)[C@H](O)[C@H](O)[C@H]1O [Neoisoastilbin]
Result: 25148.1

Query: Name the recorded av puncta of the compound listed here: COc1cc(/C=C/CO)ccc1O [Coniferyl alcohol]
Result: 25693.5

Query: // Input: O=C(O[C@@H]1[C@@H](O)[C@H](Oc2cc(O)c(C(=O)CCc3ccccc3)c(O)c2)O[C@@H]2COC(=O)c3cc(O)c(O)c(O)c3-c3c(cc(O)c(O)c3O)C(=O)O[C@@H]12)c1cc(O)c(O)c(O)c1 [Thonningianin A] . Output its av puncta only.
Result: 8713.6

----------
- subject-of-test: tau (Homo sapiens)
- method: MCE Phenols Library screening, tau biosensor cell seeding assay (AvZ)
- Type: cell-based
- condition-info: puncta, replicate 2
Listing: raw data 2 of selected molecules
Write no unit; give the number alone.

molecule	subject-of-test	raw data 2
CC[C@@H](C(=O)[C@@H](C)[C@@H](O)[C@H](C)CCc1ccc(C)c(O)c1C(=O)O)[C@H]1O[C@](CC)([C@H]2CC[C@](O)(CC)[C@H](C)O2)C[C@@H]1C	tau (Homo sapiens)	10434.5
CC(C)=CCc1c(O[C@@H]2O[C@H](CO)[C@@H](O)[C@H](O)[C@H]2O)cc(O)c2c(=O)c(O[C@@H]3O[C@@H](C)[C@H](O)[C@@H](O)[C@H]3O)c(-c3ccc(O)cc3)oc12 [Epimedoside A]	tau (Homo sapiens)	10830.3

Query: Kindly indicate its recorded raw data 2. Item: COc1cc(O)c2c(=O)cc(-c3ccc(O)cc3)oc2c1
Result: 19764.4

----------
- subject-of-test: tau (Homo sapiens, UniProt P10636)
- method: MCE Phenols Library screening, tau biosensor cell seeding assay (AvZ)
- Type: cell-based
- condition-info: puncta, replicate 1
One threshold, 30000, splits the recorded raw data 1 values: lower ones are 1, equal or higher ones are -1.

molecule	subject-of-test	class-assignment
Oc1cc2cc[nH]c2cc1O [5,6-Dihydroxyindole]	tau (Homo sapiens, UniProt P10636)	1
O=c1c(-c2ccc(O)cc2)coc2cc(O[C@@H]3O[C@H](CO)[C@@H](O)[C@H](O)[C@H]3O)cc(O)c12	tau (Homo sapiens, UniProt P10636)	-1
Oc1cc(O)c2c(c1)O[C@@]1(c3ccc(O)c(O)c3)Oc3cc(O)c4c(c3[C@@H]2[C@H]1O)O[C@H](c1ccc(O)c(O)c1)[C@H](O)C4	tau (Homo sapiens, UniProt P10636)	1
COc1cc2c(=O)c3c(O)c([C@@H]4O[C@H](CO[C@@H]5OC[C@](O)(CO)[C@H]5O)[C@@H](O)[C@H](O)[C@H]4O)c(O)cc3oc2cc1O	tau (Homo sapiens, UniProt P10636)	1
COc1ccc(-c2cc(=O)c3c(O)c(OC)c(O[C@@H]4O[C@H](CO[C@@H]5O[C@@H](C)[C@H](O)[C@@H](O)[C@H]5O)[C@@H](O)[C@H](O)[C@H]4O)cc3o2)cc1	tau (Homo sapiens, UniProt P10636)	-1
CC(C(=O)c1ccc(O)cc1O)c1ccc(O)cc1 (centres unmarked)	tau (Homo sapiens, UniProt P10636)	1
O=C1c2c(O)cccc2C([C@@H]2O[C@H](CO)[C@@H](O)[C@H](O)[C@H]2O)c2cc(CO)cc(O)c21 (some centres unmarked)	tau (Homo sapiens, UniProt P10636)	1
COc1c(O[C@@H]2O[C@H](CO)[C@@H](O)[C@H](O)[C@H]2O)cc2c(c1O)C(=O)c1c(cc(C)c(O)c1OC)C2=O [Aurantio-obtusin ?-D-glucoside]	tau (Homo sapiens, UniProt P10636)	1

Query: Hello, is raw data 1 of the following molecule strictly smaller than 30000? CC[C@@]1(O)C(=O)OCc2c1cc1n(c2=O)Cc2cc3cc(O)ccc3nc2-1 [(S)-10-Hydroxycamptothecin]
Result: -1

----------
Quick reference for av Z among some compounds
- subject-of-test: tau (Homo sapiens, UniProt P10636)
- method: MCE Phenols Library screening, tau biosensor cell seeding assay (AvZ)
- Format: cell-based
- condition-info: average Z score of two replicates, Phenols Library screen
Just the number, please, no unit after it.

Sample records with av Z:
compound	subject-of-test	av Z
COc1cc(/C=C/COC(=O)/C=C/c2ccc(O)c(OC)c2)ccc1O [Coniferyl ferulate]	tau (Homo sapiens, UniProt P10636)	-0.033
O=C1c2c(O)cc(O)cc2O[C@H](c2ccc(O)cc2)[C@H]1O [Dihydrokaempferol]	tau (Homo sapiens, UniProt P10636)	-0.031
C=C(C)[C@H](CC=C(C)C)Cc1c(O)cc(OC)c2c1O[C@H](c1ccc(O)cc1O)[C@@H](O)C2=O	tau (Homo sapiens, UniProt P10636)	0.083

Now, please, on to the next compound.
Query: Answer with the recorded av Z of O=C1c2ccccc2C(=O)c2c1cc(O)c(CO)c2O only.
Result: -0.168

----------
# Z Repl 2 annotations
- subject-of-test: UniProtKB P10636
- method: MCE Phenols Library screening, tau biosensor cell seeding assay (AvZ)
- Type: cell-based
- condition-info: Z score, replicate 2
API note: the answer field is a bare number with no unit suffix.

Example cases with answers are listed next.
molecule	subject-of-test	Z Repl 2
COc1ccc(-c2cc(=O)c3c(O)cc(O[C@@H]4O[C@H](CO)[C@@H](O)[C@H](O)[C@H]4O[C@@H]4O[C@@H](C)[C@H](O)[C@@H](O)[C@H]4O)cc3o2)cc1O	UniProtKB P10636	0.25
O=C(O)c1c(O)cccc1O [2,6-Dihydroxybenzoic acid]	UniProtKB P10636	0.955
COc1cc(/C=C/CO)ccc1O	UniProtKB P10636	0.319
COc1cc(O)c(C(=O)/C=C/c2ccc(O)cc2)c(OC)c1	UniProtKB P10636	-0.177
CC(=O)c1c(O)c(C)c(O)c2c1OC1=CC(=O)C(C(C)=O)C(=O)C12C (stereo not shown)	UniProtKB P10636	0.735

Query: // fetch Z Repl 2 given entry O=C(O[C@@H]1Cc2c(O)cc(O)cc2O[C@H]1c1ccc(O)c(O)c1)c1cc(O)c(O)c(O)c1 [(-)-Catechin gallate]
Result: -1.07

Query: Answer with the recorded Z Repl 2 for the molecule listed here: COc1ccc2cc1Oc1ccc(cc1)C[C@H]1c3cc(c(OC)cc3CCN1C)Oc1c(O)c(OC)cc3c1[C@@H](C2)N(C)CC3 [(R)-Fangchinoline]
Result: 0.65
